Provenance of the data: patent US20170326246A1

TGT: gp120 of viral strain VI829 (HIV, strain VI829)
PROTOCOL_DESCRIPTION: cell-based or functional assay
*1 amine or outer side, *2 acyl side, *3 side chain or, on linkers, in order; H or OH if unused. [ ]: non-standard residue; d: D form. U1 = 4-cyclohexylmethoxy-L-phenylalanine, O=C([C@H](Cc1ccc(OCC2CCCCC2)cc1)N[*:1])[*:2]; Tpa = thiopropionic acid
Items are presented alongside their recorded EC50 (antiviral activity, TZM-bl cells, luciferase).
Provide only the numeric value, understood in nM.

{"BINDER": "Tpa-NLHFCQLRCKSLGLLGRCA[dP]T[U1]CACV-NH2 (disulfide (positions not given here)) [M48U1]", "UNIT_INFO": "nM", "TEST_VALUE": 59}
{"BINDER": "Tpa-NLHKCQLRCSSLGLLGRCA[dP]T[U1]CACV-NH2 (disulfide (positions not given here)) [mCD4.2]", "UNIT_INFO": "nM", "TEST_VALUE": 512}
{"BINDER": "mCD4.2-PS1 (not fully specified; N-terminal gamma-aminobutyric acid (gammaAbu) acylated with 3-thiopropionyl (from SATP); all six Tyr are sulfotyrosine (YSO3); N-terminal Tpa; D-proline at position 21; U1 (4-cyclohexylmethoxy-L-phenylalanine) at position 23; C-terminal amide; Lys5 N-epsilon carries the PEO2-maleimide linker bound to the thiol of the PS1 chain) peptide 1: NLHKCQLRCSSLGLLGRCAPTFCACV peptide 2: SYDYSYDYSYDYS", "UNIT_INFO": "nM", "TEST_VALUE": 4}
{"BINDER": "M48U1-PS1 (not fully specified; N-terminal gamma-aminobutyric acid (gammaAbu) acylated with 3-thiopropionyl (from SATP); all six Tyr are sulfotyrosine (YSO3); N-terminal Tpa; D-proline at position 21; U1 (4-cyclohexylmethoxy-L-phenylalanine) at position 23; C-terminal amide; Lys11 N-epsilon carries the PEO2-maleimide linker bound to the thiol of the PS1 chain) peptide 1: NLHFCQLRCKSLGLLGRCAPTFCACV peptide 2: SYDYSYDYSYDYS", "UNIT_INFO": "nM", "TEST_VALUE": 1.1}

Moving on to another binder below.
*Q* Return reported EC50 (antiviral activity, TZM-bl cells, luciferase); argument: mCD4.3-PS1 (not fully specified; N-terminal gamma-aminobutyric acid (gammaAbu) acylated with 3-thiopropionyl (from SATP); all six Tyr are sulfotyrosine (YSO3); N-terminal Tpa; D-proline at position 21; U1 (4-cyclohexylmethoxy-L-phenylalanine) at position 23; C-terminal amide; Lys5 N-epsilon carries the PEO2-maleimide linker bound to the thiol of the PS1 chain) peptide 1: NLHKCQLRCRSLGLLGRCAPTFCACV peptide 2: SYDYSYDYSYDYS
*A* 3.6
